- ASSAY_EXPLANATION: Half life in rat liver microsomes
- Assay type: ADME, microsome
Task for the reader: assign each of the following compounds its reported half-life.
Number first, unit second.

// solved cases for half-life follow
{"COMPOUND_STRUCTURE": "COc1ccc2c(c1)C/C(=C/c1ccccc1-c1ccc3ccccc3c1)C2=O", "half-life": "4.65 h"}
{"COMPOUND_STRUCTURE": "COc1ccc2c(c1)C/C(=C/c1ccccc1-c1ccc3nc(N)ccc3c1)C2=O", "half-life": "3.78 h"}
{"COMPOUND_STRUCTURE": "COc1ccc(-c2ccccc2/C=C2/Cc3cc(OC)ccc3C2=O)cc1", "half-life": "3.58 h"}

Enquiry: // lookup half-life for COc1ccc2c(c1)C/C(=C/c1ccccc1-c1ccccc1)C2=O
Return: 4.05 h

* * *

Task for the reader: assign each of the following compounds its reported pIC50.
- ASSAY_SYSTEM: UniProtKB P81908
- ASSAY_EXPLANATION: Inhibition of horse serum BuChE using acetylthiocholine as substrate by UV-visible spectrophotometric Ellman's method
Numbers only, as −log10 of the molar value.

// solved cases for pIC50 follow
{"COMPOUND_STRUCTURE": "COc1ccc2c(c1)C/C(=C/c1ccccc1-c1ccccc1)C2=O", "REPORTED_RESULT": 6.90}
{"COMPOUND_STRUCTURE": "COc1ccc2c(c1)C/C(=C/c1ccccc1-c1ccc3nc(N)ccc3c1)C2=O", "REPORTED_RESULT": 7.88}

Quick one: give me pIC50 for each item below, same order please.
1. COc1ccc(-c2ccccc2/C=C2/Cc3cc(OC)ccc3C2=O)cc1
2. C[C@@H](NC(=O)c1cc(C(=O)N[C@@H](Cc2ccccc2)[C@H](O)CNC2CC2)cc(N(C)S(C)(=O)=O)c1)c1ccccc1

Return:
7.00
7.84

Quick one: give me pIC50 for each item below, same order please.
1. COc1ccc2c(c1)C/C(=C/c1ccccc1-c1ccc3ccccc3c1)C2=O
2. COc1ccc2c(c1)C/C(=C/C1CCN(Cc3ccccc3)CC1)C2=O

Return:
7.00
6.47

* * *

- ASSAY_EXPLANATION: Effective permeability of the compound at 100 ug/ml after 16 hrs by PAMPA
QUANTITY_MEASURED: Papp at 16 h, 100 ug/ml
Number first, unit second.

// solved cases for Papp at 16 h, 100 ug/ml follow
{"COMPOUND_STRUCTURE": "COc1ccc2c(c1)C/C(=C/c1ccccc1-c1ccc3nc(N)ccc3c1)C2=O", "REPORTED_RESULT": "24.3 ×10⁻⁶ cm/s"}
{"COMPOUND_STRUCTURE": "COc1ccc2c(c1)C/C(=C/c1ccccc1-c1ccc3ccccc3c1)C2=O", "REPORTED_RESULT": "28.5 ×10⁻⁶ cm/s"}
{"COMPOUND_STRUCTURE": "COc1ccc2c(c1)C/C(=C/c1ccccc1-c1ccccc1)C2=O", "REPORTED_RESULT": "26.6 ×10⁻⁶ cm/s"}

# next molecule below
Enquiry: // lookup Papp at 16 h, 100 ug/ml for COc1ccc(-c2ccccc2/C=C2/Cc3cc(OC)ccc3C2=O)cc1
Return: 26.2 ×10⁻⁶ cm/s

* * *

List of IC50 tested on Cholinesterase (Equus caballus, UniProt P81908).
Sequence (P81908 whole entry): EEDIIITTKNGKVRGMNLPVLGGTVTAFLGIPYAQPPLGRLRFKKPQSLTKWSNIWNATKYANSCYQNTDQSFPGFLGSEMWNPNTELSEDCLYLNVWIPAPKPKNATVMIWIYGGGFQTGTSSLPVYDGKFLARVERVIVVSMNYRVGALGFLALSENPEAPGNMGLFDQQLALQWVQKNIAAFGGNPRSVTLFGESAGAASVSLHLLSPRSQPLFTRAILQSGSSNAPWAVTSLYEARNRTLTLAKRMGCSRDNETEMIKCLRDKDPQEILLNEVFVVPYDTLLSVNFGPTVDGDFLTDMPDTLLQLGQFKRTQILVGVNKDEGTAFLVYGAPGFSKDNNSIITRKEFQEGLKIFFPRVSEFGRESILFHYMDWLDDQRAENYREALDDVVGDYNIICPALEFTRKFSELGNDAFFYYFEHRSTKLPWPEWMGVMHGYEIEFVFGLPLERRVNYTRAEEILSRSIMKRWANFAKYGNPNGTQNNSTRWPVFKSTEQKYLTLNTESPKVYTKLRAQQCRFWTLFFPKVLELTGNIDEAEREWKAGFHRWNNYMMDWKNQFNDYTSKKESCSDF
Numbers only, in nM.

// solved cases for IC50 follow
{"COMPOUND_STRUCTURE": "COc1ccc(-c2ccccc2/C=C2/Cc3cc(OC)ccc3C2=O)cc1", "UNIT_ABBREV": "nM", "IC50": 2150}
{"COMPOUND_STRUCTURE": "COc1ccc2c(c1)C/C(=C/c1ccccc1-c1ccccc1)C2=O", "UNIT_ABBREV": "nM", "IC50": 3310}
{"COMPOUND_STRUCTURE": "COc1ccc2c(c1)C/C(=C/c1ccccc1-c1ccc3ccccc3c1)C2=O", "UNIT_ABBREV": "nM", "IC50": 3970}

Enquiry: // lookup IC50 for COc1ccc2c(c1)C/C(=C/c1ccccc1-c1ccc3nc(N)ccc3c1)C2=O
Return: 1780

* * *

- ASSAY_EXPLANATION: Half life in pH 6.5 fasted state simulated intestinal fluid
- Format: ADME
Task for the reader: assign each of the following compounds its reported half-life.
Numbers only, in h.

Quick one: give me half-life for each item below, same order please.
1. COc1ccc2c(c1)C/C(=C/c1ccccc1-c1ccc3nc(N)ccc3c1)C2=O
2. COc1ccc(-c2ccccc2/C=C2/Cc3cc(OC)ccc3C2=O)cc1
3. COc1ccc2c(c1)C/C(=C/c1ccccc1-c1ccc3ccccc3c1)C2=O
4. CC[C@H]1OC(=O)[C@H](C)[C@@H](O[C@H]2C[C@@](C)(OC)[C@@H](O)[C@H](C)O2)[C@H](C)[C@@H](O[C@@H]2O[C@H](C)C[C@H](N(C)C)[C@H]2O)[C@](C)(O)C[C@@H](C)C(=O)[C@H](C)[C@@H](O)[C@]1(C)O

Return:
9.63
8.57
10.2
8.25

Enquiry: // lookup half-life for COc1ccc2c(c1)C/C(=C/c1ccccc1-c1ccccc1)C2=O
Return: 9.85

* * *

- ASSAY_EXPLANATION: Metabolic stability in human plasma assessed as compound remaining measured after 120 mins
- Type: ADME, cell-free
- CONDITION_SET: read-out: Stability
Task for the reader: assign each of the following compounds its reported remaining at 2 h.
One number for each entry, in %.

// solved cases for remaining at 2 h follow
{"COMPOUND": "COc1ccc2c(c1)C/C(=C/c1ccccc1-c1ccccc1)C2=O", "remaining at 2 h (%)": 98.6}
{"COMPOUND": "COc1ccc2c(c1)C/C(=C/c1ccccc1-c1ccc3ccccc3c1)C2=O", "remaining at 2 h (%)": 99.2}
{"COMPOUND": "COc1ccc(-c2ccccc2/C=C2/Cc3cc(OC)ccc3C2=O)cc1", "remaining at 2 h (%)": 97.5}
{"COMPOUND": "CC(C)[N+](C)(CCOC(=O)C1c2ccccc2Oc2ccccc21)C(C)C [PROPANTHELINE]", "remaining at 2 h (%)": 2.83}

Enquiry: // lookup remaining at 2 h for COc1ccc2c(c1)C/C(=C/c1ccccc1-c1ccc3nc(N)ccc3c1)C2=O
Return: 96.1

* * *

- ASSAY_SYSTEM: Acetylcholinesterase (Homo sapiens)
- Sequence (P22303 whole entry): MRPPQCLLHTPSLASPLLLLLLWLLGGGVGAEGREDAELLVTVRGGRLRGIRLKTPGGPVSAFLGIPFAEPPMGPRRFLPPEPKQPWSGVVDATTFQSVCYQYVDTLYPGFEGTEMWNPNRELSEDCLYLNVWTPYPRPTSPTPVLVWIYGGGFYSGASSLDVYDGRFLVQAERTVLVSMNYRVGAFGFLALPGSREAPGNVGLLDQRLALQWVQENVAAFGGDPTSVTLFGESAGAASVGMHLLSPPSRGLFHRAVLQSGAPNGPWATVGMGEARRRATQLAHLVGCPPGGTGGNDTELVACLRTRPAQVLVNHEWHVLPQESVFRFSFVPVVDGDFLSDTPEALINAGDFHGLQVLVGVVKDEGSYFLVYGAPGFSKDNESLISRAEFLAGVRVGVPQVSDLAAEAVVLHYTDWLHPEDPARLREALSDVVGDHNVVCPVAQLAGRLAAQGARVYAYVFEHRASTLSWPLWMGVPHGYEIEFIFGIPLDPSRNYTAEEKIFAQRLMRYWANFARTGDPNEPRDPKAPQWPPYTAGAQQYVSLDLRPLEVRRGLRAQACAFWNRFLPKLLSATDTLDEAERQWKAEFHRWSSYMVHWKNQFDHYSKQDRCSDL
- ASSAY_EXPLANATION: Inhibition of human recombinant AChE using acetylthiocholine as substrate by UV-visible spectrophotometric Ellman's method
Task for the reader: assign each of the following compounds its reported IC50.
Give bare numbers, in nM.

// solved cases for IC50 follow
{"COMPOUND_STRUCTURE": "COc1ccc2c(c1)C/C(=C/C1CCN(Cc3ccccc3)CC1)C2=O", "ASSAY_SYSTEM": "Acetylcholinesterase (Homo sapiens)", "REPORTED_RESULT": 44.1}
{"COMPOUND_STRUCTURE": "COc1ccc2c(c1)C/C(=C/c1ccccc1-c1ccc3nc(N)ccc3c1)C2=O", "ASSAY_SYSTEM": "Acetylcholinesterase (Homo sapiens)", "REPORTED_RESULT": 14.7}
{"COMPOUND_STRUCTURE": "COc1ccc2c(c1)C/C(=C/c1ccccc1-c1ccccc1)C2=O", "ASSAY_SYSTEM": "Acetylcholinesterase (Homo sapiens)", "REPORTED_RESULT": 29.8}
{"COMPOUND_STRUCTURE": "COc1ccc(-c2ccccc2/C=C2/Cc3cc(OC)ccc3C2=O)cc1", "ASSAY_SYSTEM": "Acetylcholinesterase (Homo sapiens)", "REPORTED_RESULT": 21.2}

# next compound below
Enquiry: // lookup IC50 for COc1ccc2c(c1)C/C(=C/c1ccccc1-c1ccc3ccccc3c1)C2=O
Return: 32.4
